Hey, just so you know, these numbers are from PubChem BioAssay (NCI).

System: KM12 colon
Assay: NCI-60 one-dose screen, 48 h
Conditions: 10 µM unless noted
About 83,000 compounds went through this panel and 20% of them were active in at least one assay; those are over-represented in the sample as a whole. Calls of active or inactive are those of the source. How the source made its calls: active means growth percent below 10; inactive means the rest.
Output constraint: value belongs to True for active, False for inactive

compound: COc1cc2oc(-c3cccc(C(=O)Nc4ccc(Cl)cc4)c3)cc(=O)c2c(O)c1OC
class: False
--
compound: Cc1ccc(-c2nc3ccccn3c2/C=C2/C(=O)Nc3cc(Cl)ccc32)cc1
class: False

What did the test return for CC1=CCC(OC(=O)C(C)(O)CCC(O)(C(=O)OC2(C)C=CC(O)(C(C)C)CC2)C(C)C)(C(C)C)CC1 (centres undefined) ?
False

What did the test return for CCCCCOc1ccc(/C=N/Nc2cc(C)nc3ccc(Cl)cc23)cc1 ?
True
